Tested on: male Std: Wistar rats
Procedure text: Pain test by plantar thermal stimuli (plantar test)
Assay type: in vivo
Assay conditions: Rattus norvegicus, 4 h, 50 μl of 0.03% (W/V) solution i.pl. into right hind-paw; 4 hours after administration; cut-off 25 seconds; read-out: % MPE (percent maximum possible effect, withdrawal latency)
Label yes (1) when change in vivo at 300 µg/mL < 60%; otherwise no (0).

Some solved entries appear below for comparison.
Asked: Input COc1cc(CC(=O)N[C@H]2CC[C@@H](/C=C\CC(C)C)CC2)ccc1O ; condition: change in vivo at 300 µg/mL strictly below 60%. Does it hold?
Given back: no (0)

Asked: Input CCC/C=C\[C@H]1CC[C@H](NC(=O)Cc2ccc(O)c(OC)c2)CC1 ; condition: change in vivo at 300 µg/mL strictly below 60%. Does it hold?
Given back: no (0)

Asked: Input COc1cc(CC(=O)NC2CCC(=C3CCC3)CC2)ccc1O (stereo not drawn) ; condition: change in vivo at 300 µg/mL strictly below 60%. Does it hold?
Given back: yes (1)

---
Asked: Input COc1cc(CC(=O)N[C@H]2CC[C@H](/C=C/CCF)CC2)ccc1O ; condition: change in vivo at 300 µg/mL strictly below 60%. Does it hold?
Given back: yes (1)

Asked: Input COc1cc(CC(=O)N[C@H]2CC[C@H](CCC3CCC3)CC2)ccc1O ; condition: change in vivo at 300 µg/mL strictly below 60%. Does it hold?
Given back: no (0)

Asked: Input CCCCC1=CCC(NC(=O)Cc2ccc(O)c(OC)c2)CC1 (stereo not drawn) ; condition: change in vivo at 300 µg/mL strictly below 60%. Does it hold?
Given back: no (0)

----------
Tested on: male Std: Wistar rats
Procedure text: Pain test by plantar thermal stimuli (plantar test)
Format: in vivo
Assay conditions: Rattus norvegicus, 4 h, 50 μl of 0.03% (W/V) solution i.pl. into right hind-paw; 4 hours after administration; cut-off 25 seconds; read-out: % MPE (percent maximum possible effect, withdrawal latency)
Result type: change in vivo at 300 µg/mL (%)
Answers are plain numbers, in %.

Completed entries (count: 5):
Asked: So what's the measured change in vivo at 300 µg/mL for this one? CCC(CC)[C@H]1CC[C@@H](NC(=O)Cc2ccc(O)c(OC)c2)CC1
Given back: 74.6

Asked: So what's the measured change in vivo at 300 µg/mL for this one? COc1cc(CC(=O)N[C@H]2CC[C@H](/C=C/CC(F)(F)F)CC2)ccc1O
Given back: 56.6

Asked: So what's the measured change in vivo at 300 µg/mL for this one? CCCC=C1CCC(NC(=O)Cc2ccc(O)c(OC)c2)CC1 (stereo not drawn) [Example 10]
Given back: 89.4

Asked: So what's the measured change in vivo at 300 µg/mL for this one? C/C=C\CC[C@H]1CC[C@H](NC(=O)Cc2ccc(O)c(OC)c2)CC1
Given back: 74.1

Asked: So what's the measured change in vivo at 300 µg/mL for this one? COc1cc(CC(=O)N[C@H]2CC[C@@H](/C=C/CC(C)C)CC2)ccc1O
Given back: 100

Batch lookup, change in vivo at 300 µg/mL per entry.
1. CCOC(=O)CC[C@H]1CC[C@H](NC(=O)Cc2ccc(O)c(OC)c2)CC1
2. COc1cc(CC(=O)N[C@H]2CC[C@H](/C=C\C(C)C)CC2)ccc1O
3. COc1cc(CC(=O)N[C@H]2CC[C@H](OCCCC(F)(F)F)CC2)ccc1O
4. C=CCC[C@H]1CC[C@H](NC(=O)Cc2ccc(O)c(OC)c2)CC1

Given back:
1. 45.8
2. 100
3. 57.6
4. 57.1

----------
Test system: male Std: Wistar rats
Procedure text: Pain test by plantar thermal stimuli (plantar test)
Type: in vivo
Assay conditions: Rattus norvegicus, 4 h, 50 μl of 0.03% (W/V) solution i.pl. into right hind-paw; 4 hours after administration; cut-off 25 seconds; read-out: % MPE (percent maximum possible effect, withdrawal latency)
Outcome: fulfilled for change in vivo at 300 µg/mL of at least 70%; not fulfilled for anything lower.

Some solved entries appear below for comparison.
Asked: Quick check: does CCCC(CCC)[C@H]1CC[C@H](NC(=O)Cc2ccc(O)c(OC)c2)CC1 have change in vivo at 300 µg/mL greater than or equal to 70%?
Given back: not fulfilled

Asked: Quick check: does C/C=C(\CC)[C@H]1CC[C@@H](NC(=O)Cc2ccc(O)c(OC)c2)CC1 have change in vivo at 300 µg/mL greater than or equal to 70%?
Given back: not fulfilled

---
Asked: Quick check: does COc1cc(CC(=O)NC2CCC(c3ccccc3)CC2)ccc1O (stereo not drawn) have change in vivo at 300 µg/mL greater than or equal to 70%?
Given back: fulfilled

Asked: Quick check: does COc1cc(CC(=O)N[C@H]2CC[C@H](/C=C\CC(C)C)CC2)ccc1O have change in vivo at 300 µg/mL greater than or equal to 70%?
Given back: fulfilled

Asked: Quick check: does CCCCCC1CCC(NC(=O)Cc2ccc(O)c(OC)c2)CC1 (stereo not drawn) have change in vivo at 300 µg/mL greater than or equal to 70%?
Given back: fulfilled

Asked: Quick check: does COc1cc(CC(=O)N[C@H]2CC[C@H](CC=C(C)C)CC2)ccc1O have change in vivo at 300 µg/mL greater than or equal to 70%?
Given back: fulfilled

Asked: Quick check: does COc1cc(CC(=O)N[C@H]2CC[C@H](/C=C/C(C)=O)CC2)ccc1O have change in vivo at 300 µg/mL greater than or equal to 70%?
Given back: not fulfilled

----------
Tested on: Slc: Hartley male guinea-pigs
Procedure text: Skin sensitization test (Adjuvant and Patch Test, allergenic potency)
Type: in vivo, guinea-pig
Assay conditions: 1% solution patches, FCA pre-treatment, observed 24 and 48 hours after initiation
Result type: skin sensitization (erythema, edema score)

Asked: So what's the measured skin sensitization (erythema, edema score) for this one? CCCCC1=CCC(NC(=O)Cc2ccc(O)c(OC)c2)CC1 (single isomer, unassigned; (-)) [Example 44]
Given back: no skin sensitization

Asked: So what's the measured skin sensitization (erythema, edema score) for this one? COc1cc(CC(=O)N[C@H]2CC[C@H](CCCC(C)C)CC2)ccc1O
Given back: no skin sensitization

Asked: So what's the measured skin sensitization (erythema, edema score) for this one? C/C=C\[C@H]1CC[C@H](NC(=O)Cc2ccc(O)c(OC)c2)CC1
Given back: no skin sensitization

Asked: So what's the measured skin sensitization (erythema, edema score) for this one? CCCC=C1CCC(NC(=O)Cc2ccc(O)c(OC)c2)CC1 (single isomer, unassigned; (-)) [Example 46]
Given back: no skin sensitization

Asked: So what's the measured skin sensitization (erythema, edema score) for this one? CCCC=C1CCC(NC(=O)Cc2ccc(O)c(OC)c2)CC1 (single isomer, unassigned; (+)) [Example 45]
Given back: no skin sensitization

Batch lookup, skin sensitization (erythema, edema score) per entry.
1. CCCCC1=CCC(NC(=O)Cc2ccc(O)c(OC)c2)CC1 (stereo not drawn) [Example 1]
2. CCCCC1=CCC(NC(=O)Cc2ccc(O)c(OC)c2)CC1 (single isomer, unassigned; (+)) [Example 43]
3. CCCCC1CCC(NC(=O)Cc2ccc(O)c(OC)c2)CC1 (stereo not drawn)
4. CC/C=C\[C@H]1CC[C@H](NC(=O)Cc2ccc(O)c(OC)c2)CC1

Given back:
no skin sensitization
no skin sensitization
no skin sensitization
no skin sensitization

----------
Test system: male Std: Wistar rats
Procedure text: Pain test by plantar thermal stimuli (plantar test)
Format: in vivo
Assay conditions: Rattus norvegicus, 4 h, 50 μl of 0.03% (W/V) solution i.pl. into right hind-paw; 4 hours after administration; cut-off 25 seconds; read-out: % MPE (percent maximum possible effect, withdrawal latency)
Hi there, I'd appreciate the recorded change in vivo at 300 µg/mL for every entry that follows.
Numbers only, in %.

Completed entries (count: 8):
Asked: So what's the measured change in vivo at 300 µg/mL for this one? C/C=C/[C@H]1CC[C@@H](NC(=O)Cc2ccc(O)c(OC)c2)CC1
Given back: 49.4

Asked: So what's the measured change in vivo at 300 µg/mL for this one? COc1cc(CC(=O)N[C@H]2CC[C@H](CCCCF)CC2)ccc1O
Given back: 55.8

Asked: So what's the measured change in vivo at 300 µg/mL for this one? CCC/C=C/[C@H]1CC[C@H](NC(=O)Cc2ccc(O)c(OC)c2)CC1
Given back: 82.5

Asked: So what's the measured change in vivo at 300 µg/mL for this one? C/C=C\[C@H]1CC[C@H](NC(=O)Cc2ccc(O)c(OC)c2)CC1
Given back: 54.7

Asked: So what's the measured change in vivo at 300 µg/mL for this one? COc1cc(CC(=O)N[C@H]2CC[C@H](CC3CCCC3)CC2)ccc1O
Given back: 97.8

Asked: So what's the measured change in vivo at 300 µg/mL for this one? CCCC1(CCC)CCC(NC(=O)Cc2ccc(O)c(OC)c2)CC1
Given back: 64.7

Asked: So what's the measured change in vivo at 300 µg/mL for this one? COc1cc(CC(=O)N[C@H]2CC[C@H](/C=C\C3CC3)CC2)ccc1O
Given back: 80.5

Asked: So what's the measured change in vivo at 300 µg/mL for this one? CC/C=C\[C@H]1CC[C@@H](NC(=O)Cc2ccc(O)c(OC)c2)CC1
Given back: 97

---
Asked: So what's the measured change in vivo at 300 µg/mL for this one? COc1cc(CC(=O)N[C@H]2CC[C@H](C3CCCCC3)CC2)ccc1O
Given back: 77.4
